These entries and their values trace back to a melting point compilation (Tetko et al.).

- CONDITIONS_USED: a range is the spread between reports
METRIC_NAME: melting point

> print(dat)
                                    compound  recorded.measurement
 1           CCn1cc(C(=O)O)c(=O)c2ccc(C)nc21         229 to 230 °C
 2                              OCc1ccccc1CO           62 to 64 °C
 3                           COc1ccc(C)cc1OC           24 to 27 °C
 4                                   CCCCCCC       -91 to -90.6 °C
 5                     c1ccc(CSCc2ccccc2)cc1         49 to 49.5 °C
 6                           Nc1ccc(Br)cc1Br           78 to 80 °C
 7                            CCCCCC(=O)OCCC       -69 to -68.7 °C
 8                     Cc1cc(O)c(C(C)C)cc1Cl           59 to 63 °C
 9  COc1ccc(C2CC(=O)c3c(O)cc(O)cc3O2)cc1O (configuration not stated)         228 to 230 °C
10                          FC(F)(F)c1ccccc1       -29.1 to -27 °C
11                                OCc1cccnc1         -7 to -6.5 °C
12                                 C1CNCCNC1         41 to 43.5 °C
13               CCCCCCCCCCCCCCCCCCCCCCCCCCC         59 to 59.5 °C
14                        O=C(O)c1cc(F)ccc1F         130 to 133 °C
15       ClCC1CO1 (configuration not stated)       -57.2 to -57 °C
16                               OCc1ccccc1I           91 to 92 °C
17                               BrCC(Br)CBr           16 to 17 °C

----------
Recorded measurements of melting point, one per entry
- CONDITIONS_USED: a range is the spread between reports
METRIC_NAME: melting point

> print(dat)
                                    compound    metric.name  recorded.measurement
 1                           Nc1ccc2ccccc2c1  melting point         112 to 113 °C
 2                                OCc1ccncc1  melting point           53 to 54 °C
 3            CCCCC(O)CCC (stereo not given)  melting point       -41 to -40.7 °C
 4                     CCN1C(=O)c2ccccc2C1=O  melting point           76 to 79 °C
 5                         Cc1cccc(C(=O)O)c1  melting point         109 to 112 °C
 6                               CC(C)C(N)=O  melting point         128 to 129 °C
 7  CC12CCC3C(CCC4CC(OCc5ccccc5)CCC43C)C1CCC2=O (stereo not given)  melting point         216 to 220 °C
 8                     O=[N+]([O-])c1ccccc1I  melting point           50 to 54 °C
 9                      COc1ccc(C(C)=O)cc1OC  melting point           49 to 51 °C
10                       Nc1c(F)c(F)cc(F)c1F  melting point         31 to 31.5 °C
11                            Cc1ccccc1C(C)C  melting point       -72 to -71.5 °C
12                 Nc1ccc2ccc3cccc4ccc1c2c34  melting point         116 to 118 °C
13                      O=C(O)c1cc(Br)ccc1Br  melting point         155 to 157 °C
14  CC(C)=CCN1CCC2(C)c3cc(O)ccc3CC1C2C (stereo not given)  melting point                146 °C
15                     CCc1cccc(-c2ccccc2)c1  melting point       -28 to -27.5 °C

----------
Recorded measurements of melting point, one per entry
- CONDITIONS_USED: a range is the spread between reports
METRIC_NAME: melting point

> print(dat)
                                    compound  recorded.measurement
 1              c1ccc(COc2ccc3[nH]ccc3c2)cc1          99 to 102 °C
 2                                      O=CO          8 to 8.32 °C
 3                        CC(=O)Nc1cccc(F)c1           83 to 88 °C
 4                             Cc1cccc(O)c1C         71.5 to 75 °C
 5  O/N=C(\c1ccccc1)C(O)c1ccccc1 (stereo unspecified)         151 to 154 °C
 6                  COc1ccc(C(=O)O)c(OC)c1OC         100 to 101 °C
 7             COCC(C)O (stereo unspecified)        -100 to -95 °C
 8          O=C(CCNNC(=O)c1ccncc1)NCc1ccccc1         151 to 152 °C
 9                    O=C(O)CCCCCCCCCCCCCCCO           98 to 99 °C
10                                 CCCCC(C)C               -118 °C
11              O=C(O)C(F)(F)C(F)(F)C(F)(F)F       -18 to -17.5 °C
12                          COc1cc(C#N)ccc1O           86 to 87 °C
13               NC(=O)c1c(F)c(F)c(F)c(F)c1F         147 to 148 °C
14                            Cc1cc(C)[nH]n1         107 to 108 °C
15      c1ccc(C2CO2)cc1 (stereo unspecified)       -37 to -35.6 °C
16                      CCOc1ccc2ccccc2c1C=O         112 to 115 °C

----------
- CONDITIONS_USED: a range is the spread between reports
METRIC_NAME: melting point

> print(dat)
                             compound.string  recorded.measurement
 1  CO[C@@H]1O[C@H](CO)[C@H](O)[C@H](O)[C@H]1O         172 to 177 °C
 2              Oc1ccc2ccccc2c1/N=N/c1ccccc1         132 to 134 °C
 3                             C=Cc1ccccc1Br       -53 to -52.5 °C
 4                             N#Cc1ccccc1Cl         45 to 46.3 °C
 5                             Fc1ccc(Cl)cc1       -26.8 to -22 °C
 6                         Cc1cc(C)c(Br)cc1C           71 to 73 °C
 7                                C1CCCCCCC1           12 to 15 °C
 8                          Cc1ccc(Cl)c(N)c1         29.5 to 32 °C
 9                    c1ccc2c(c1)ccc1cccnc12           50 to 52 °C
10            COc1cc(C=CC(=O)c2ccccc2O)ccc1O         126 to 129 °C
11    O=C(O)Cc1sc(-c2ccccc2)nc1-c1ccc(Cl)cc1         161 to 162 °C
12                        Cc1cccc(C(=O)O)c1C         145 to 146 °C
13                                       CCO               -114 °C
14                                   c1ccoc1       -85.6 to -85 °C
15                        NC(=O)c1ccc(Br)cc1         191 to 192 °C
16                         Nc1nc(Cl)cc(Cl)n1                220 °C
17                              CCOC(=O)CC#N         -23 to -22 °C
18                    Cc1c(Br)cc(Br)c(O)c1Br           82 to 84 °C
19                          Cc1ccc(C)c(Br)c1            9 to 10 °C
20                           OC/C=C/c1ccccc1           30 to 34 °C
21                         CC(C)c1ccc(CO)cc1           27 to 28 °C
22                            COc1cc(C)ccc1O           5.5 to 6 °C
23                        Cc1cc(C)c(C)c(O)c1         93.5 to 94 °C
24                             Nc1ccc(Br)cc1         63 to 66.4 °C
25                              CCCCC(=O)OCC       -91.2 to -91 °C
26                                Nc1ccccc1N         101 to 102 °C
27  CN1C(=C(O)Nc2ccccn2)C(=O)c2ccccc2S1(=O)=O         198 to 199 °C
28                                CC(C)(C)OO           -8 to -3 °C
29                            Cc1ccc(C#N)cc1         28 to 29.5 °C
30                  Cc1c(C)c(C)c(CCl)c(C)c1C           82 to 83 °C
31                             Oc1c(F)cccc1F         38 to 39.5 °C
32                    O=C(O)c1ccc(Cl)c(Cl)c1         207 to 208 °C
33                  O=C(Cl)c1ccc(C(=O)Cl)cc1         81 to 83.5 °C
